tested on: Phytophthora cactorum VKM F-985; assay: Mycelial radial growth inhibition; assay type: cell-based; conditions: Phytophthora cactorum, 120 h, day 5; read-out: EC50, µg/mL at Day 5, P. cactorum
observationType: EC50 (µg/mL)

[
  {
    "molecule": "O=C(C[n+]1ccccc1)NN=C1C(=O)N(Cc2cccc(C(F)(F)F)c2)c2ccc(F)cc21.[Cl-] [Compound 5c]",
    "tgt": "Phytophthora cactorum VKM F-985",
    "EC50 [µg/mL]": 15
  },
  {
    "molecule": "O=C(C[n+]1ccccc1)NN=C1C(=O)N(Cc2c(F)cccc2Cl)c2ccc(F)cc21.[Cl-] [Compound 5b]",
    "tgt": "Phytophthora cactorum VKM F-985",
    "EC50 [µg/mL]": 18.2
  },
  {
    "molecule": "Cc1ccc2c(c1)C(=NNC(=O)C[n+]1ccccc1)C(=O)N2Cc1cccc(C(F)(F)F)c1.[Cl-] [Compound 5e]",
    "tgt": "Phytophthora cactorum VKM F-985",
    "EC50 [µg/mL]": 27.4
  },
  {
    "molecule": "Cc1ccc[n+](CC(=O)N/N=C2\\C(=O)N(Cc3cccc(C(F)(F)F)c3)c3ccccc32)c1C [Compound 7c]",
    "tgt": "Phytophthora cactorum VKM F-985",
    "EC50 [µg/mL]": 20
  },
  {
    "molecule": "O=C(C[n+]1ccccc1)NN=C1C(=O)N(Cc2c(F)c(F)c(F)c(F)c2F)c2ccc(F)cc21.[Cl-] [Compound 5d]",
    "tgt": "Phytophthora cactorum VKM F-985",
    "EC50 [µg/mL]": 24.7
  }
]

[a] Cc1ccc[n+](CC(=O)N/N=C2\C(=O)N(Cc3ccccc3F)c3ccccc32)c1C [Compound 7a]
[b] O=C(C[n+]1ccccc1)NN=C1C(=O)N(Cc2ccccc2F)c2ccc(F)cc21.[Cl-] [Compound 5a]
Which has the smaller recorded EC50, a or b ? // caller expects the label of the chosen entry
b
(b: 15 µg/mL, a: 22.9 µg/mL)

----------
system: Fusarium oxysporum IBPPM 543; test: Mycelial radial growth inhibition; assay type: cell-based; conditions: Fusarium oxysporum, IBPPM543, 72 h; 40 nmol/mL; age of the fungus 3 days; read-out: Inhibition value, I (%)
The entries below come with measured inhibition of growth at 40 µM values attached.
Reply with just the number (in %).

[
  {
    "querySmiles": "Cc1ccc[n+](CC(=O)N/N=C2\\C(=O)N(Cc3cccc(C(F)(F)F)c3)c3ccccc32)c1C",
    "inhibition of growth at 40 µM (%)": 57
  },
  {
    "querySmiles": "Cc1ccc[n+](CC(=O)N/N=C2\\C(=O)N(Cc3ccccc3F)c3ccccc32)c1C",
    "inhibition of growth at 40 µM (%)": 61
  }
]

Shift focus to the following entry.
Notebook: O=C(C[n+]1ccccc1)NN=C1C(=O)N(Cc2c(F)c(F)c(F)c(F)c2F)c2ccc(F)cc21.[Cl-] , inhibition of growth at 40 µM read as 49

----------
tested on: Phytophthora cactorum VKM F-985; test: Mycelial radial growth inhibition; assay type: cell-based; details: Phytophthora cactorum, 72 h; 27 nmol/mL; age of the fungus 3 days; read-out: Inhibition value, I (%)
# reported inhibition of growth; entries follow
Expressed in %, but write only the number.

[
  {
    "compound": "O=C(C[n+]1ccccc1)NN=C1C(=O)N(Cc2c(F)c(F)c(F)c(F)c2F)c2ccc(F)cc21.[Cl-] [Compound 5d]",
    "quantityUnit": "%",
    "measValue": 28
  },
  {
    "compound": "O=C(C[n+]1ccccc1)NN=C1C(=O)N(Cc2c(F)cccc2Cl)c2ccc(F)cc21.[Cl-] [Compound 5b]",
    "quantityUnit": "%",
    "measValue": 33
  }
]

Case Cc1ccc[n+](CC(=O)N/N=C2\C(=O)N(Cc3ccccc3F)c3ccccc32)c1C [Compound 7a] , Phytophthora cactorum VKM F-985, inhibition of growth recorded as 27

----------
system: M-HeLa; assay: MTT cell viability test, M-HeLa; type: cell-based, human; details: Homo sapiens, M-HeLa; incubation time 24 h
observationType: IC50 (µM)

Look over these answered cases.
[
  {
    "compound": "CC(C)(C)c1cc(CN2C(=O)C(=O)c3cc(F)ccc32)cc(C(C)(C)C)c1 [Compound 4d]",
    "IC50 (µM)": 58.4
  },
  {
    "compound": "O=C1C(=O)N(Cc2ccc(F)cc2Cl)c2ccccc21 [Compound 8a]",
    "IC50 (µM)": 50
  },
  {
    "compound": "O=C1C(=O)N(Cc2c(F)c(F)c(F)c(F)c2F)c2ccc(F)cc21 [Compound 3f]",
    "IC50 (µM)": 100
  },
  {
    "compound": "O=C1C(=O)N(Cc2c(F)cccc2Cl)c2ccc(F)cc21 [Compound 3d]",
    "IC50 (µM)": 53.8
  },
  {
    "compound": "Cc1cc(C)cc(CN2C(=O)C(=O)c3cc(F)ccc32)c1 [Compound 4b]",
    "IC50 (µM)": 58.8
  }
]

[P] Cc1ccc(CN2C(=O)C(=O)c3cc(F)ccc32)cc1 [Compound 4a]
[Q] O=C1C(=O)N(Cc2ccccc2F)c2ccc(F)cc21 [Compound 3a]
I'm curious whether P or Q has the smaller IC50 number. Which is it? Your answer should be the label attached to the chosen record.
P
(P: 44.7 µM, Q: 74.6 µM)
